All figures here come from patent US20210380703A1.

Target: T1, Goat anti-Human Kappa
T1 construct: Positive control of the ELISA; also called biotinylated goat anti-human kappa light chain
Assay: ELISA, positive control; note: test concentration or dose not given here
quantity_name: optical density (OD)
The reply should contain only the number, in OD.

Previously resolved entries follow.
binder	value_unit	optical density
369_A03 (antibody, V domains shown) VH: EVQLLESGGGLVQPGGSLRLSCAASGFTFSSYGMNWVRQAPGKGLEWVSNINYNGGYTGYADSVKGRFTISRDNSKNTLYLQMNSLRAEDTAVYYCARSANWHDTALDYWGQGTLVTVSS VL: DIQMTQSPSSLSASVGDRVTITCRASQSILTYLNWYQQKPGKAPKLLIYAVTSRHSGVPSRFSGSGSGTDFTLTISSLQPEDFATYYCQQGYDLPLTFGGGTKVEIK	OD	3.17
367_E11 (antibody, V domains shown) VH: EVQLLESGGGLVQPGGSLRLSCAASGFTFDSYGMNWVRQAPGKGLEWVSSINYNSGYKGYADSVKGRFTISRDNSKNTLYLQMNSLRAEDTAVYYCARSANWHDTHLDYWGQGTLVTVSS VL: DIQMTQSPSSLSASVGDRVTITCRASQSIVSYVNWYQQKPGKAPKLVIYAATSRHSGVPSRFSGSGSGTDFTLTISSLQPEDFATYYCQQSYDTPLTFGGGTKVEIK	OD	3.61
369_F02 (antibody, V domains shown) VH: EVQLLESGGGLVQPGGSLRLSCAASGFTFSSYGMNWVRQAPGKGLEWVASINYNSGYKSYADSVKGRFTISRDNSKNTLYLQMNSLRAEDTAVYYCARSANWHDTALDYWGQGTLVTVSS VL: DIQMTQSPSSLSASVGDRVTITCRASQSIVSYLNWYQQKPGKAPKLVIYAATSRASGVPSRFSGSGSGTDFTLTISSLQPEDFATYYCQQSYDTPLTFGGGTKVEIK	OD	3.56
373_A10 (antibody, V domains shown) VH: EVQLLESGGGLVQPGGSLRLSCAASGFTFSSYGMNWVRQAPGKGLEWVSGINYNSGYTSYADSVKGRFTISRDNSKNTLYLQMNSLRAEDTAVYYCARSANWHDTALDYWGQGTLVTVSS VL: DIQMTQSPSSLSASVGDRVTITCRASQSILSYLNWYQQKPGKAPKLVIYAATSRASGVPSRFSGSGSGTDFTLTISSLQPEDFATYYCQQSYDLPLTFGGGTKVEIK	OD	3.1

Switching to the query record.
Which measured optical density value corresponds to 373_H05 (antibody, V domains shown) VH: EVQLLESGGGLVQPGGSLRLSCAASGFTFSDYSMNWVRQAPGKGLEWVANINYNGGYKGYADSVKGRFTISRDNSKNTLYLQMNSLRAEDTAVYYCARSANWHDTALDYWGQGTLVTVSS VL: DIQMTQSPSSLSASVGDRVTITCRASQSILTYVNWYQQKPGKAPKLVIYAATSRASGVPSRFSGSGSGTDFTLTISSLQPEDFATYYCQQSYETPLTFGGGTKVEIK ? 3.22
